Documented IC50 across a set of molecules
test system: 616215-338-R-J1-PDC tumor spheroids, viability; assay: Anticancer human tumor 616215-338-R-J1-PDC patient-derived colon adenocarcinoma cell line growth inhibition [GQUAD]; settings: curve of first compound; second compound 10 µM; spheroids with HUVEC and MSC;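 also: spheroids exposed to agents for 7 days before readout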

1. CC(C)n1c(=O)n(C)c2cnc3cc(F)c(-c4ccc(OCCCN5CCCCC5)nc4)cc3c21 + Cc1[nH]c2ccc(F)cc2c1-c1nc2c3cccnc3c3ncccc3c2[nH]1 : > 10 µM
2. C#Cc1c(F)ccc2cc(O)cc(-c3ncc4c(N5CC6CCC(C5)N6)nc(OCC56CCCN5CC(F)C6)nc4c3F)c12 (stereo unspecified) + Cc1[nH]c2ccc(F)cc2c1-c1nc2c3cccnc3c3ncccc3c2[nH]1 : 6.03 µM
3. CC1COCCN1c1cc(C2(O)CC3CCC(C2)O3)c2cnn(-c3ccn[nH]3)c2n1 (stereo unspecified) + Cc1cnc(CNC(=O)c2c(=O)c3ccc(N4CCCN(C)CC4)nc3n3c2sc2ccccc23)cn1 : < 0.0316 µM
4. CC1COCCN1c1cc(-c2ccnn2C)c2ccnc(-c3ccn[nH]3)c2n1 (stereo unspecified) + Cc1cnc(CNC(=O)c2c(=O)c3ccc(N4CCCN(C)CC4)nc3n3c2sc2ccccc23)cn1 : < 0.0316 µM
5. Nc1ccn(C2OC(CO)C(O)C2(F)F)c(=O)n1 (stereo unspecified) + Cc1cnc(CNC(=O)c2c(=O)c3ccc(N4CCCN(C)CC4)nc3n3c2sc2ccccc23)cn1 : < 0.0316 µM

Continue with the molecule presented below.
Data request: Under 616215-338-R-J1-PDC tumor spheroids, viability: IC50 value of O=C(c1cc(Cc2n[nH]c(=O)c3ccccc23)ccc1F)N1CCN(C(=O)C2CC2)CC1 + CN(C)c1ccc(Nc2c3ccc(NC(=O)CCN4CCCC4)cc3nc3cc(NC(=O)CCN4CCCC4)ccc23)cc1 ?
Data returned: > 10 µM
